test_name: Selectivity index, ratio of CC50 for cytotoxicity against African green monkey Vero cells to IC50 for antiviral activity against Vaccinia virus Copenhagen infected in African green monkey Vero cells
Assay type: toxicity, cell-based
reported_conditions: read-out: Ratio CC50/IC50
property_label: selectivity ratio
Form field (numeric): enter value without unit.

Looking up CC1(C)CC(=O)c2c(nc(-c3ccc([N+](=O)[O-])cc3)n2OCc2ccccc2)C1 , I see its selectivity ratio listed as 182

Looking up Nc1ccn(C[C@@H](CO)OCP(=O)(O)O)c(=O)n1 [CIDOFOVIR ANHYDROUS] , I see its selectivity ratio listed as 34

Looking up Cn1c2c([n+]([O-])c1-c1ccc(C(F)(F)F)cc1)C(=O)CC(C)(C)C2 , I see its selectivity ratio listed as 146

Looking up COn1c(-c2ccc([N+](=O)[O-])cc2)nc2c1C(=O)CC(C)(C)C2 , I see its selectivity ratio listed as 291

Looking up CC1(C)CC(=O)c2c(nc(-c3ccc([N+](=O)[O-])cc3)n2OCc2c(F)cccc2F)C1 , I see its selectivity ratio listed as 43

Looking up COc1ccc(-c2nc(C)c(C(C)=O)n2O)cc1 , I see its selectivity ratio listed as 34

Looking up CC1(C)CC(=O)c2c(nc(-c3ccc(C#N)cc3)n2O)C1 , I see its selectivity ratio listed as 351

Looking up COn1c(-c2ccc([N+](=O)[O-])cc2)nc(C)c1C(C)=O , I see its selectivity ratio listed as 93

Looking up CC1(C)CC(=O)c2c(nc(-c3ccc(C(F)(F)F)cc3)n2O)C1 , I see its selectivity ratio listed as 300

Looking up CC(=O)c1c(C)nc(-c2ccc(N(C)C)cc2)n1O , I see its selectivity ratio listed as 23

Looking up COn1c(-c2ccc(C#N)cc2)nc2c1C(=O)CC(C)(C)C2 , I see its selectivity ratio listed as 27

Looking up COn1c(-c2ccc(C(F)(F)F)cc2)nc(C)c1C(C)=O , I see its selectivity ratio listed as 30

Looking up CC(=O)c1c(C)nc(-c2ccc(C#N)cc2)n1O , I see its selectivity ratio listed as 76

Looking up CC(=O)c1c(C)nc(-c2ccc([N+](=O)[O-])cc2)n1O , I see its selectivity ratio listed as 44
